assay: In vivo p.o. dosing: plasma and colon tissue concentrations (Protocols 1 and 2); parameters: species or system female C57BL/6 mice; conditions: female, C57BL/6, mouse, plasma, po; mice, 25 mg/kg p.o., Time = 0.5 h; read-out: Plasma Concentration After p.o. Dosing, Mean
Classify by measured concentration at 0.5 h: 1.0 if it is equal to or exceeds 20 ng/mL, 0.0 if it is smaller.

{"columns": ["compound", "label_class"],
 "data": [
  ["CC(C)(O)CNC(=O)Cc1nc2cnc3[nH]ccc3c2n1[C@H]1CC[C@H](CC#N)CC1 [Ex. 1]", 0.0],
  ["Cn1cc(NC(=O)Cc2nc3cnc4[nH]ccc4c3n2[C@H]2CC[C@H](CC#N)CC2)cn1 [Ex. 38]", 0.0],
  ["N#CCCNC(=O)Cc1nc2cnc3[nH]ccc3c2n1[C@H]1CC[C@H](CC#N)CC1 [Ex. 4]", 0.0],
  ["CC(C)(C#N)CNC(=O)Cc1nc2cnc3[nH]ccc3c2n1[C@H]1CC[C@H](CC#N)CC1 [Ex. 22]", 1.0],
  ["N#CC[C@H]1CC[C@H](n2c(CC(=O)NCC3CCOCC3)nc3cnc4[nH]ccc4c32)CC1 [Ex. 10]", 0.0]
]}

Prompt line: Please tell me: is the compound N#CC[C@H]1CC[C@H](n2c(CC(=O)NCC3(O)CC3)nc3cnc4[nH]ccc4c32)CC1 [Ex. 85] at or over 20 ng/mL in terms of concentration at 0.5 h?
Response line: 0.0

Prompt line: And then N#CCC1CCC(n2c(-c3c[nH]cn3)nc3cnc4[nH]ccc4c32)CC1 (centres unmarked) [Ex. 2] , what is it?
Response line: 1.0

Prompt line: Follow-up item: N#CC[C@H]1CC[C@H](n2c(CC(=O)NCC3CC3)nc3cnc4[nH]ccc4c32)CC1 [Ex. 3]
Response line: 1.0

###

Parameter 'readout' = pIC50; parameter 'system' = UniProtKB O60674.
Sequence (O60674 532-1132): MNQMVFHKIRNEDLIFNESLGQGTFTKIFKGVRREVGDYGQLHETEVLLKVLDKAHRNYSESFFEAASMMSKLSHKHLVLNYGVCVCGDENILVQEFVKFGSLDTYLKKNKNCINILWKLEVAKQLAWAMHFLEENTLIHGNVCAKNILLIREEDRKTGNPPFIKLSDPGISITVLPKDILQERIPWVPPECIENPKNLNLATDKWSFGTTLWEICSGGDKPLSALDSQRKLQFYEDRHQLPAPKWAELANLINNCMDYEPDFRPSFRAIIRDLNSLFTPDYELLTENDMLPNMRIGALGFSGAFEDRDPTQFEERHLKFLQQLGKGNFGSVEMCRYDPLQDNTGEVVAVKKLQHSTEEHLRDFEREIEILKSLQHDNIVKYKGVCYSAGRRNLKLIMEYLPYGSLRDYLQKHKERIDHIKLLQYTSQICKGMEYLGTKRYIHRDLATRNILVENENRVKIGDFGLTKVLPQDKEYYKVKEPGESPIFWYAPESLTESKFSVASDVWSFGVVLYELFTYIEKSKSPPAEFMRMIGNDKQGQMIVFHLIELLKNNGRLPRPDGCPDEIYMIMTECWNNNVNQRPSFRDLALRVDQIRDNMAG
Value format note: pIC50 is -log10 of concentration (mol/L); just state the number.

See these solved cases before continuing.
{"columns": ["compound", "target_system", "pIC50"],
 "data": [
  ["CC(C)/C(N)=N/OCc1nc2cnc3[nH]ccc3c2n1[C@H]1CC[C@H](CC#N)CC1", "UniProtKB O60674", 8.00],
  ["N#CC[C@H]1CC[C@H](n2c(CC(=O)NCCO)nc3cnc4[nH]ccc4c32)CC1", "UniProtKB O60674", 8.14],
  ["N#CC[C@H]1CC[C@H](n2c(CC(=O)NCc3cnccn3)nc3cnc4[nH]ccc4c32)CC1", "UniProtKB O60674", 8.44]
]}

Prompt line: So what does the record say about pIC50 for Cc1nc(C)c(-c2nc3cnc4[nH]ccc4c3n2[C@H]2CC[C@H](CC#N)CC2)s1 ?
Response line: 6.64

Prompt line: Same lookup for Cc1nc(C)c(-c2nc3cnc4[nH]ccc4c3n2[C@H]2CC[C@H](CC#N)CC2)o1 , please.
Response line: 7.28

Prompt line: What would you report for COCC(C)NC(=O)c1nc2cnc3[nH]ccc3c2n1[C@H]1CC[C@H](CC#N)CC1 (stereo partly shown) ?
Response line: 7.68

###

In what follows, each item is paired with its pIC50 for JAK3-JH1JH2 (Homo sapiens (Human), UniProt P52333).
API: returns pIC50 as number; meaning -log10 of concentration in mol/L.

{"columns": ["smiles_entry", "experimental_value"],
 "data": [
  ["N#CC[C@H]1CC[C@H](n2c(CC(=O)NC34CCC(C#N)(CC3)C4)nc3cnc4[nH]ccc4c32)CC1", 7.42],
  ["N#CC[C@H]1CC[C@H](n2c(CC(=O)N3CCC(O)CC3)nc3cnc4[nH]ccc4c32)CC1", 7.00]
]}

Now consider the entry below.
Prompt line: Request the reported pIC50 associated with N#CC[C@H]1CC[C@H](n2c(CC(=O)NCCOc3ccncc3)nc3cnc4[nH]ccc4c32)CC1
Response line: 7.06

Values were extracted from patent US10981911B2.
